Where these numbers come from: paper PMC13126677

This section presents compounds with their documented logD values.
Assay name: physchem
Condition parameters: organic solvent / aqueous solvent at pH 7.4, pH 7.4
Measured attribute: logD

COCCN1CCN(S(=O)(=O)c2ccc(OC)cc2)[C@@H](C(=O)NO)C1 : 0.1
COCCN1CCN(S(=O)(=O)c2ccc(Oc3ccc(C(F)(F)F)cc3)cc2)[C@@H](C(=O)NO)C1 : 2.7
COc1ccc(S(=O)(=O)N2CCNC[C@@H]2C(=O)NO)cc1.Cl : -0.2
COc1ccc(S(=O)(=O)N2CCN(S(C)(=O)=O)C[C@@H]2C(=O)NO)cc1 : -0.3

====

Assay name: in vitro
Condition parameters: human, microsomes
The entries below are paired with their reported log10 of microsomal CLint.
Measured attribute: log10 of microsomal CLint (log10 of the value in µL/min/mg)

COCCN1CCN(S(=O)(=O)c2ccc(-c3ccc(Cl)cc3)cc2)[C@@H](C(=O)NO)C1 : 0.71
COc1ccc(S(=O)(=O)N2CCN(S(=O)(=O)c3ccc(OC)cc3)[C@@H](C(=O)NO)C2)cc1 : 1.01
COCCN1CCN(S(=O)(=O)c2ccc(Oc3ccc(C(F)(F)F)cc3)cc2)[C@@H](C(=O)NO)C1 : 0.93
COCCOC(=O)N1CCN(S(=O)(=O)c2cc(F)c(Oc3ccc(Cl)cc3)c(F)c2)[C@@H](C(=O)NO)C1 [XL-784, reference compound] : 2.00
COc1ccc(S(=O)(=O)N2CCN(S(=O)(=O)c3c(C)noc3C)C[C@@H]2C(=O)NO)cc1 : 1.24

====

Known solubility of a selection of molecules
Assay name: physchem
Condition parameters: aqueous medium at pH 7.4, pH 7.4, aqueous buffer
Measured attribute: solubility (µM)

COCCN1CCN(S(=O)(=O)c2ccc(Oc3ccc(OC(F)(F)F)cc3)cc2)[C@@H](C(=O)NO)C1 : 437
COCCN1CCN(S(=O)(=O)c2ccc(Oc3ccc(Cl)cc3)cc2)[C@@H](C(=O)NO)C1 : 431
COCCN1CCN(S(=O)(=O)c2ccc(Oc3ccc(C(F)(F)F)cc3)cc2)[C@@H](C(=O)NO)C1 : 320
COCCOC(=O)N1CCN(S(=O)(=O)c2cc(F)c(Oc3ccc(Cl)cc3)c(F)c2)[C@@H](C(=O)NO)C1 [XL-784, reference compound] : 316

====

Tested on: SVMP activity of Bothrops jararaca venom
Condition parameters: read-out: Inhibition of SVMP enzymatic activity EC50 BJA; B. jararaca venom; mean of n ≥ 3, range in brackets
pEC50: −log10 of the molar value.
Measured attribute: pEC50

COCCN1CCN(S(=O)(=O)c2ccc(Oc3ccc(OC)cc3)cc2)[C@@H](C(=O)NO)C1 : 6.68
COc1ccc(S(=O)(=O)N2CCN(S(C)(=O)=O)C[C@@H]2C(=O)NO)cc1 : 7.70
COCCN1CCN(S(=O)(=O)c2ccc(-c3ccc(Cl)cc3)cc2)[C@@H](C(=O)NO)C1 : 7.41
COCCN1CCN(S(=O)(=O)c2ccc(Oc3ccc(C(F)(F)F)cc3)cc2)[C@@H](C(=O)NO)C1 : 5.82
COCCN1CCN(S(=O)(=O)c2ccc(-c3ccc(F)cc3)cc2)[C@@H](C(=O)NO)C1 : 7.57
COc1ccc(S(=O)(=O)N2CCN(S(=O)(=O)c3c(C)noc3C)C[C@@H]2C(=O)NO)cc1 : 7.75
COc1ccc(S(=O)(=O)N2CCNC[C@@H]2C(=O)NO)cc1.Cl : 7.25
COCCN1CCN(S(=O)(=O)c2ccc(OC)cc2)[C@@H](C(=O)NO)C1 : 7.06
